TEST TARGET: TMPRSS2 (Homo sapiens)
Sequence (O15393 106-492): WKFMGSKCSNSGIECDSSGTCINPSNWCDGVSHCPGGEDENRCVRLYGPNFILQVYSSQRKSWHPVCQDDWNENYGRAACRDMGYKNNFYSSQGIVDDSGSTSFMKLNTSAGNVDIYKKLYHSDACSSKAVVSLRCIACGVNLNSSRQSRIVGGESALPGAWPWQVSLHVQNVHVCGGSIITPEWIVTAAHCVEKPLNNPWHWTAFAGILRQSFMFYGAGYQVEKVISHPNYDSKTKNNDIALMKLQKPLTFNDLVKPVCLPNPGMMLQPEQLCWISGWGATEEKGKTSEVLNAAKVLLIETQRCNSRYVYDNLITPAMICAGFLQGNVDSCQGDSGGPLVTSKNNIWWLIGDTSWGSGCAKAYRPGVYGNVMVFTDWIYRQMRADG
EXPERIMENTAL ENDPOINT: IC50

Param readout= IC50; system= TMPRSS2 (Homo sapiens); entry= CC(C)C[C@H](NC(=O)OCc1cccc(C(F)(F)F)c1)C(=O)N[C@@H](C[C@@H]1CCNC1=O)C(O)S(=O)(=O)O (some centres unmarked) ; returns value. > 100 µM

Could you now look at the following compound, please?
What measured IC50 is associated with CC(C)C[C@H](NC(=O)OCc1ccccc1Cl)C(=O)N[C@@H](C[C@@H]1CCNC1=O)C(O)S(=O)(=O)O (some centres unmarked) on TMPRSS2 (Homo sapiens)? > 100 µM
